Reference source: patent US20250127907A1

Record form. Attribute: IC50. Fill in for each entry.
tested on: MDA-MB-436 cells; test: Cell proliferation assay (MDA-MB-436); type: cell-based; settings: Homo sapiens, 168 h, 7 days

Examples with their reported IC50 follow.
compound: CCc1cccc(-c2cnc(C(=O)NCCOCCNCC(=O)N3CCN(C(=O)c4cc(Cc5n[nH]c(=O)c6ccccc56)ccc4F)CC3)c(NC(C)=O)c2)c1
test-system: MDA-MB-436 cells
observed-measurement: < 10 nM

compound: CCc1cccc(-c2cnc(C(=O)NCCOCCNCC(=O)N3CCN(C(=O)c4cc(Cc5n[nH]c(=O)c6ccccc56)ccc4F)CC3)c(C)c2)c1
test-system: MDA-MB-436 cells
observed-measurement: < 10 nM

compound: O=C(CN1CCN(C[C@@H]2C[C@H]3CC[C@@H]2CN3C(=O)c2c(F)cc(-c3ccccc3)cc2F)CC1)N1CCN(C(=O)c2cc(Cc3n[nH]c(=O)c4ccccc34)ccc2F)CC1
test-system: MDA-MB-436 cells
observed-measurement: < 10 nM

compound: CC(C)(C)OC(=O)Nc1cc(-c2cccc(C3COC3)c2)cnc1C(=O)NCCOCCNCC(=O)N1CCN(C(=O)c2cc(Cc3n[nH]c(=O)c4ccccc34)ccc2F)CC1
test-system: MDA-MB-436 cells
observed-measurement: < 10 nM

compound: O=C(CN1CCN(CC2CCN(C(=O)c3c(F)cc(-c4ccccc4)cc3F)CC2)CC1)N1CCN(C(=O)c2cc(Cc3n[nH]c(=O)c4ccccc34)ccc2F)CC1
test-system: MDA-MB-436 cells
observed-measurement: < 10 nM

Hi! Can you tell me IC50 for each of these compounds?
1. CCc1cccc(-c2cc(N)c(C(=O)N3CCC(CN4CCN(CC(=O)N5CCN(C(=O)c6cc(Cc7n[nH]c(=O)c8ccccc78)ccc6F)CC5)CC4)CC3)c(F)c2)c1
2. CCc1cccc(-c2cnc(C(=O)N3CCC(CN4CCN(CC(=O)N5CCN(C(=O)c6cc(Cc7n[nH]c(=O)c8ccccc78)ccc6F)CC5)CC4)CC3)c(C#N)c2)c1
3. O=C(N[C@@H](C(=O)N1CCN(CC2CCN(CC(=O)N3CCN(C(=O)c4cc(Cc5n[nH]c(=O)c6ccccc56)ccc4F)CC3)CC2)CC1)C1CCCCC1)c1cc(C2CCCN(C(=O)CNC3CC3)C2)ccc1F (stereo partly shown)
4. CC(C)(C)OC(=O)Nc1cc(-c2cccc(C#N)c2)cnc1C(=O)NCCOCCNCC(=O)N1CCN(C(=O)c2cc(Cc3n[nH]c(=O)c4ccccc34)ccc2F)CC1
5. CCOc1cc(OC)ccc1CNCC(=O)N1CCC[C@H](c2cccc(C(=O)N[C@@H](C(=O)N3CCN(CC4CCN(CC(=O)N5CCN(C(=O)c6cc(Cc7n[nH]c(=O)c8ccccc78)ccc6F)CC5)CC4)CC3)C3CCCCC3)c2)C1
6. CCc1cccc(-c2cnc(C(=O)N3CCC(CN4CCN(CC(=O)N5CCN(C(=O)c6cc(Cc7n[nH]c(=O)c8ccccc78)ccc6F)CC5)CC4)CC3)c(NC(=O)CNCc3ccc(F)cc3F)c2)c1
7. O=C(CN1CCC(OC2CCN(C(=O)c3c(F)cc(-c4ccncc4)cc3F)CC2)CC1)N1CCN(C(=O)c2cc(Cc3n[nH]c(=O)c4ccccc34)ccc2F)CC1
8. O=C(N[C@@H](C(=O)N1CCN(CC2CCN(CC(=O)N3CCN(C(=O)c4cc(Cc5n[nH]c(=O)c6ccccc56)ccc4F)CC3)CC2)CC1)C1CCCCC1)c1cc(C2CCCN(C(=O)CNCc3ccc(F)cc3F)C2)ccc1F (stereo partly shown)

Response line:
["< 10 nM", "< 10 nM", "< 10 nM", "< 10 nM", "100 to 1000 nM", "10 to 100 nM", "< 10 nM", "10 to 100 nM"]
